tested on: Nucleic Acid; test: Binding affinity to hairpin duplex F10T DNA assessed as change in melting temperature at 2.0 uM by FRET assay
Provide the recorded ΔTm for the entries that follow.
Answers are plain numbers, in °C.

Example entries begin here.
COc1ccc2cc3[n+](cc2c1OCCCCCC[n+]1ccccc1)CCc1cc2c(cc1-3)OCO2 0
COc1ccc2cc3[n+](cc2c1OCCC[n+]1cccc(C)c1)CCc1cc2c(cc1-3)OCO2 0.5
COc1ccc2cc3[n+](cc2c1OCCCn1cc[n+](C)c1)CCc1cc2c(cc1-3)OCO2 0

I would be grateful if you could provide ΔTm for each of the following entries.
1. COc1ccc2cc3[n+](cc2c1OCCCOc1ccncc1)CCc1cc2c(cc1-3)OCO2
2. COc1ccc2cc3[n+](cc2c1OCCC[n+]1ccc(N(C)C)cc1)CCc1cc2c(cc1-3)OCO2
3. COc1ccc2cc3[n+](cc2c1OC)CCc1cc2c(cc1-3)OCO2
4. COc1ccc2cc3[n+](cc2c1OCCCCC[n+]1ccccc1)CCc1cc2c(cc1-3)OCO2
5. COc1ccc2cc3[n+](cc2c1OCCC[n+]1cccc(F)c1)CCc1cc2c(cc1-3)OCO2

**Result**
1: 0; 2: 0; 3: 1; 4: 0.5; 5: 0

I would be grateful if you could provide ΔTm for each of the following entries.
1. COc1ccc2cc3[n+](cc2c1OCCC[n+]1ccccc1)CCc1cc2c(cc1-3)OCO2
2. COc1ccc2cc3[n+](cc2c1OCCC[n+]1cccc2ccccc21)CCc1cc2c(cc1-3)OCO2

**Result**
1. 0.5
2. 0

**Query** Reported ΔTm, compound "COc1ccc2cc3[n+](cc2c1OCCCn1ccc(N)nc1=O)CCc1cc2c(cc1-3)OCO2" : ____
**Result** 0

###

system: Nucleic Acid; test: Binding affinity to human telomeric G-quadruplex F21T DNA assessed as change in melting temperature at 2.0 uM by FRET assay; format: nucleic-acid assay
Provide the recorded ΔTm for the entries that follow.
Give bare numbers, in °C.

I would be grateful if you could provide ΔTm for each of the following entries.
1. COc1ccc2cc3[n+](cc2c1OC)CCc1cc2c(cc1-3)OCO2
2. COc1ccc2cc3[n+](cc2c1OCCCCC[n+]1ccccc1)CCc1cc2c(cc1-3)OCO2
3. COc1ccc2cc3[n+](cc2c1OCCCCCC[n+]1ccccc1)CCc1cc2c(cc1-3)OCO2
4. COc1ccc2cc3[n+](cc2c1OCCC[n+]1cccc2ccccc21)CCc1cc2c(cc1-3)OCO2
5. COc1ccc2cc3[n+](cc2c1OCCC[n+]1ccccc1)CCc1cc2c(cc1-3)OCO2
6. COc1ccc2cc3[n+](cc2c1OCCCn1cc[n+](C)c1)CCc1cc2c(cc1-3)OCO2

**Result**
[4, 21, 20, 20, 18, 17]

I would be grateful if you could provide ΔTm for each of the following entries.
1. COc1ccc2cc3[n+](cc2c1OCCC[n+]1cccc(C)c1)CCc1cc2c(cc1-3)OCO2
2. COc1ccc2cc3[n+](cc2c1OCCCn1ccc(N)nc1=O)CCc1cc2c(cc1-3)OCO2
3. COc1ccc2cc3[n+](cc2c1OCCCOc1ccncc1)CCc1cc2c(cc1-3)OCO2
4. COc1ccc2cc3[n+](cc2c1OCCC[n+]1cccc(F)c1)CCc1cc2c(cc1-3)OCO2
5. COc1ccc2cc3[n+](cc2c1OCCC[n+]1ccc(N(C)C)cc1)CCc1cc2c(cc1-3)OCO2

**Result**
21
13
10
20
25
